MEASURED_TARGET: SARS-CoV-2 M^pro (Severe acute respiratory syndrome coronavirus 2)
EXPERIMENTAL_PROTOCOL: biochemical
Assay type: biochemical
PARTICULARS: 20 μM compound; buffer with 5 mM DTT; for values marked a the relative standard deviation of 6% applies; read-out: SARS-CoV-2 M^pro enzyme inhibition (%) 20 μM
PROPERTY_NAME: inhibition at 20 µM (%)
Numeric answer only, unit % assumed.

Here are 5 compounds together with their reported answers.
- COMPOUND: "Oc1ccc([C@@H]2c3c(O)cc(O)cc3[C@@H]3c4c(O)cc(O)cc4[C@H]2[C@H]3c2ccc(O)cc2)cc1 [Compound 25, ampelopsin F]"
  inhibition at 20 µM / %: 18.9
- COMPOUND: "COc1ccc(C(=O)N(CCN(Cc2ccccc2)C(=O)c2ccc(OC)cc2)Cc2ccccc2)cc1 [Compound 27]"
  inhibition at 20 µM / %: 4.8
- COMPOUND: "O=c1cc(-c2ccccc2)oc2cc(O)c(O)c(O)c12 [Compound 4, baicalein, reference compound]"
  inhibition at 20 µM / %: 8.6
- COMPOUND: "CC(C)=CCC/C(C)=C/Cc1c(O)ccc([C@@H]2CC(=O)c3c(O)cc(O)cc3O2)c1O [Compound 11, sanggenol A]"
  inhibition at 20 µM / %: 31.9
- COMPOUND: "O=C(/C=C/c1ccc(O)c(O)c1)O[C@@H](C(=O)O)[C@@H](OC(=O)/C=C/c1ccc(O)c(O)c1)C(=O)O [Compound 18, chicoric acid]"
  inhibition at 20 µM / %: 0.7

Q. For the compound COc1cc(O)c(C(=O)/C=C/c2ccccc2)c(O)c1[C@H]1C[C@H](c2ccccc2)Oc2c(OC)c(O)cc(OC)c21 [Compound 26, sarcandrone B] , report inhibition at 20 µM.
A. 1.2

Q. Provide only the value of recorded inhibition at 20 µM for CC(C)=CCc1c(-c2ccc(O)c3c2OC(C)(C)C=C3)oc2cc(O)cc(O)c2c1=O [Compound 22, kuwanon A]
A. 45.5

Q. Assign inhibition at 20 µM to the following record: CC1=C[C@H](c2c(O)ccc([C@@H]3CC(=O)c4c(O)cc(O)cc4O3)c2O)[C@@H](C(=O)c2ccc(O)cc2O)[C@H](c2ccc(O)cc2O)C1 [Compound 16, kuwanon L]
A. 70.4

Q. Give the reported value of inhibition at 20 µM for this record: C=C(C)[C@H](CC=C(C)C)Cc1c(O)cc(OC)c2c1O[C@H](c1ccc(O)cc1O)CC2=O [Compound 21, kurarinone]
A. 30.2

Q. Report inhibition at 20 µM, nothing else, for this compound: CC(C)=CCCC1=C[C@H](c2c(O)cc3c(c2O)C(=O)C[C@@H](c2ccc(O)cc2O)O3)[C@@H](C(=O)c2ccc(O)cc2O)[C@H](c2ccc(O)cc2O)C1 [Compound 15, sanggenon G]
A. 92.6

Q. Return value of inhibition at 20 µM for input CC(C)(O)CCc1c(-c2ccc(O)cc2O)oc2c3c(cc(O)c2c1=O)OC(C)(C)C=C3 [Compound 24, morusinol] , no commentary.
A. 23.1

Q. Give recorded inhibition at 20 µM. O=C(CCc1ccccc1)C[C@H]1C[C@H](c2ccccc2)c2c(cc(/C=C/c3ccccc3)oc2=O)O1 [Compound 17, katsumadain A]
A. 5

Q. Quickly give me recorded inhibition at 20 µM for O=C(CCCN1C(=O)c2ccccc2N2C(=O)c3ccccc3C12)NCCc1cnc[nH]1 (stereo not shown) [Compound 28]
A. 14.1

====

System: SARS-CoV-2
EXPERIMENTAL_PROTOCOL: Antiviral assay in Caco-2 cells
Type: cell-based
PARTICULARS: Severe acute respiratory syndrome coronavirus 2; Caco-2 cells; read-out: Anti SARS-CoV-2 activity Caco-2 IC50
PROPERTY_NAME: IC50 (µM)
Reply with just the number (in µM).

Q. Tell us which IC50 value is on record for COc1ccc2c(=O)c(Oc3ccc(C(=O)NC(C)Cc4c[nH]c5ccccc45)cc3)coc2c1 (stereo not shown) [Compound 42]
A. 7.1

====

MEASURED_TARGET: M^pro (Severe acute respiratory syndrome coronavirus 2, UniProt P0DTD1)
Assay type: binding
PARTICULARS: 2 μM protein, 50 μM ligand

- COMPOUND: "CC1=C[C@H](c2c(O)ccc([C@@H]3CC(=O)c4c(O)cc(O)cc4O3)c2O)[C@@H](C(=O)c2ccc(O)cc2O)[C@H](c2ccc(O)cc2O)C1 [Compound 16, kuwanon L]"
  STD signals: "exhibited STD signals"
- COMPOUND: "CC(C)=CCC12Oc3cc(O)c([C@@H]4C=C(C)C[C@H](c5ccc(O)cc5O)[C@H]4C(=O)c4ccc(O)cc4O)c(O)c3C(=O)C1(O)Oc1cc(O)ccc12 (some centres unmarked) [Compound 14, sanggenon D]"
  STD signals: "exhibited STD signals"

====

MEASURED_TARGET: SARS-CoV-2 PLpro (Severe acute respiratory syndrome coronavirus 2)
EXPERIMENTAL_PROTOCOL: biochemical
Design: papain-like protease (PL^pro; domain of nsp3); purchased Anaspec (Fremont, USA) AS-72263
PARTICULARS: read-out: SARS-CoV-2 PLpro inhibition % enzyme inhibition (20 µM)
Criterion: inhibition at 20 µM meeting or surpassing 30%. Met: 1. Not met: 0.

- COMPOUND: "COc1cc(C2Oc3cc([C@H]4Oc5cc(O)cc(O)c5C(=O)[C@@H]4O)ccc3OC2CO)ccc1O (stereo partly shown)"
  MEASURED_TARGET: "SARS-CoV-2 PLpro (Severe acute respiratory syndrome coronavirus 2)"
  ANSWER_LABEL: 1
- COMPOUND: "COc1ccc2c(C)c(CC(=O)Nc3c(C)cccc3C(C)C)c(=O)oc2c1OC"
  MEASURED_TARGET: "SARS-CoV-2 PLpro (Severe acute respiratory syndrome coronavirus 2)"
  ANSWER_LABEL: 0
- COMPOUND: "C=CCc1ccc(O)c(-c2cc(CC=C)ccc2O)c1"
  MEASURED_TARGET: "SARS-CoV-2 PLpro (Severe acute respiratory syndrome coronavirus 2)"
  ANSWER_LABEL: 1
- COMPOUND: "COc1ccc2c(=O)c(Oc3ccc(C(=O)NC(C)Cc4c[nH]c5ccccc45)cc3)coc2c1 (stereo not shown)"
  MEASURED_TARGET: "SARS-CoV-2 PLpro (Severe acute respiratory syndrome coronavirus 2)"
  ANSWER_LABEL: 1
- COMPOUND: "COc1ccc(S(=O)(=O)NCc2ccc(C(=O)NCc3ccccc3)cc2)cc1"
  MEASURED_TARGET: "SARS-CoV-2 PLpro (Severe acute respiratory syndrome coronavirus 2)"
  ANSWER_LABEL: 0
- COMPOUND: "COc1cc(CNC(=O)CCCC/C=C/C(C)C)ccc1O [Compound 31, trans-capsaicin]"
  MEASURED_TARGET: "SARS-CoV-2 PLpro (Severe acute respiratory syndrome coronavirus 2)"
  ANSWER_LABEL: 1
- COMPOUND: "CN1[C@@H](CC(=O)c2ccccc2)CCC[C@H]1C[C@H](O)c1ccccc1"
  MEASURED_TARGET: "SARS-CoV-2 PLpro (Severe acute respiratory syndrome coronavirus 2)"
  ANSWER_LABEL: 0
- COMPOUND: "Cn1cc(CNC(=O)c2cc([N+](=O)[O-])ccc2Cl)cn1"
  MEASURED_TARGET: "SARS-CoV-2 PLpro (Severe acute respiratory syndrome coronavirus 2)"
  ANSWER_LABEL: 0
- COMPOUND: "CC(C)(O)[C@H](O)COc1c2ccoc2cc2oc(=O)ccc12 [Compound 37, oxypeucedanin hydrate]"
  MEASURED_TARGET: "SARS-CoV-2 PLpro (Severe acute respiratory syndrome coronavirus 2)"
  ANSWER_LABEL: 1
- COMPOUND: "COc1ccc(CNC(=O)c2cn(CCC(C)C)c(=O)c3ccccc23)cc1OC"
  MEASURED_TARGET: "SARS-CoV-2 PLpro (Severe acute respiratory syndrome coronavirus 2)"
  ANSWER_LABEL: 1

As a next step, examine the compound that follows.
Q. Check this compound for inhibition at 20 µM at or above 30%: CC(=O)O[C@H](CC=C(C)C)C1=CC(=O)c2c(O)ccc(O)c2C1=O
A. 1

====

MEASURED_TARGET: SARS-CoV-2 M^pro (Severe acute respiratory syndrome coronavirus 2)
EXPERIMENTAL_PROTOCOL: biochemical
Type: biochemical
PARTICULARS: 100 μM compound; buffer with 5 mM DTT; read-out: SARS-CoV-2 M^pro enzyme inhibition (%) 100 μM
Heads up, the class ranges for inhibition at 100 µM are interval 1: < 30%; interval 2: ≥ 30% and < 90%; interval 3: ≥ 90%

Some solved entries appear below for comparison.
- COMPOUND: "CC(C)=CCC/C(C)=C/Cc1c(O)ccc([C@@H]2CC(=O)c3c(O)cc(O)cc3O2)c1O"
  MEASURED_TARGET: "SARS-CoV-2 M^pro (Severe acute respiratory syndrome coronavirus 2)"
  ANSWER_LABEL: "interval 3"
- COMPOUND: "O=C(CCc1ccccc1)C[C@H]1C[C@H](c2ccccc2)c2c(cc(/C=C/c3ccccc3)oc2=O)O1"
  MEASURED_TARGET: "SARS-CoV-2 M^pro (Severe acute respiratory syndrome coronavirus 2)"
  ANSWER_LABEL: "interval 2"
- COMPOUND: "C=C(C)[C@H](CC=C(C)C)Cc1c(O)cc(OC)c2c1O[C@H](c1ccc(O)cc1O)CC2=O"
  MEASURED_TARGET: "SARS-CoV-2 M^pro (Severe acute respiratory syndrome coronavirus 2)"
  ANSWER_LABEL: "interval 3"
- COMPOUND: "Oc1ccc([C@@H]2c3c(O)cc(O)cc3[C@@H]3c4c(O)cc(O)cc4[C@H]2[C@H]3c2ccc(O)cc2)cc1"
  MEASURED_TARGET: "SARS-CoV-2 M^pro (Severe acute respiratory syndrome coronavirus 2)"
  ANSWER_LABEL: "interval 2"
- COMPOUND: "CC1=C[C@H](c2c(O)ccc([C@@H]3CC(=O)c4c(O)cc(O)cc4O3)c2O)[C@@H](C(=O)c2ccc(O)cc2O)[C@H](c2ccc(O)cc2O)C1"
  MEASURED_TARGET: "SARS-CoV-2 M^pro (Severe acute respiratory syndrome coronavirus 2)"
  ANSWER_LABEL: "interval 3"

Q. # bin lookup: classify O=C(/C=C/c1ccc(O)c(O)c1)O[C@@H](C(=O)O)[C@@H](OC(=O)/C=C/c1ccc(O)c(O)c1)C(=O)O by its inhibition at 100 µM
A. interval 1

Q. Into which category would you place CC(C)=CCc1c(-c2ccc(O)c3c2OC(C)(C)C=C3)oc2cc(O)cc(O)c2c1=O ?
A. interval 2

Q. Just checking, what class would you give COc1ccc(C(=O)N(CCN(Cc2ccccc2)C(=O)c2ccc(OC)cc2)Cc2ccccc2)cc1 here?
A. interval 1

Q. Kindly state the category for this compound: COc1cc(O)c(C(=O)/C=C/c2ccccc2)c(O)c1[C@H]1C[C@H](c2ccccc2)Oc2c(OC)c(O)cc(OC)c21
A. interval 1

Q. Exam item: assign CC(C)=CCCC1=C[C@H](c2c(O)cc3c(c2O)C(=O)C[C@@H](c2ccc(O)cc2O)O3)[C@@H](C(=O)c2ccc(O)cc2O)[C@H](c2ccc(O)cc2O)C1 to the correct category.
A. interval 3

Q. Categorize the following entry: O=C(/C=C/c1ccc(O)c(O)c1)OC1CC(OC(=O)/C=C/c2ccc(O)c(O)c2)(C(=O)O)CC(O)C1O (stereo not drawn)
A. interval 1
